Listing of recorded No of positive serum samples above 30% CCP (serum samples) by entry.
target: pre-existing anti-drug antibodies (ADA) present in human sera; assay: ELISA pre-existing ADA binding assay, confirmatory setup, test molecule coated, 20 human sera
attribute measured: No of positive serum samples above 30% CCP (serum samples)

INSERT INTO results (binder, measurement) VALUES
  ('PRO2925 (scFv) scFv: DIQMTQSPSSLSASVGDRVTITCQASESIYSSLAWYQQKPGKAPKLLIYLASTLASGVPSRFSGSGSGTDFTLTISSLQPEDFATYYCQSTDYTTSTHRNSFGTGTKVTVLGGGGGSGGGGSGGGGSGGGGSEVQLVESGGGSVQPGGSLRLSCAASGFSFSTTYYMCWVRQAPGKGLEWIGCTNTASSVRTYYATWAKGRFTISRDNSKNTVYLQMNSLRAEDTATYYCARDMGFADYALNLWGQGTQVTVSS', 5),
  ('PRO2922 (scFv) scFv: DIQMTQSPSSLSASVGDRVTITCQASESIYSSLAWYQQKPGKAPKLLIYLASTLASGVPSRFSGSGSGTDFTLTISSLQPEDFATYYCQSTDYTTSTHRNSFGTGTKVTVLGGGGGSGGGGSGGGGSGGGGSEVQLVESGGGRVQPGGSLRLSCAASGFSFSTTYYMCWVRQAPGKGLEWIGCTNTASSVRTYYATWAKGRFTISRDNSKNTVYLQMNSLRAEDTAVYYCARDMGFADYALNLWGQGTLVTVSS', 2),
  ('PRO1922 (scFv) scFv: DIQMTQSPSSLSASVGDRVTITCQASESIYSSLAWYQQKPGKAPKLLIYLASTLASGVPSRFSGSGSGTDFTLTISSLQPEDFATYYCQSTDYTTSTHRNSFGTGTKVTVLGGGGGSGGGGSGGGGSGGGGSEVQLVESGGGLVQPGGSLRLSCAASGFSFSTTYYMCWVRQAPGKGLEWIGCTNTASSVRTYYATWAKGRFTISRDNSKNTVYLQMNSLRAEDTAVYYCARDMGFADYALNLWGQGTLVTVSS', 16),
  ('PRO2906 (scFv) scFv: DIQMTQSPASLSASVGDRVTITCQASQSIGTYLAWYQQKPGKPPKLLIYRAFILASGVPSRFSGSGSGTDFTLTISSLQPEDFATYYCQSNFYSDSTTIGPNAFGTGTKVTVLGGGGGSGGGGSGGGGSGGGGSEVQLVESGGGLVQPGGSLRLSCAASGFSFNSDYWIYWVRQAPGKGLEWIASIYGGSSGNTQYASWAQGRFTISRDNSKNTVYLQMNSLRAEDTATYFCARGYVDYGGATDLWGQGTQVTVSS', 19),
  ('PRO2919 (scFv) scFv: DIQMTQSPSSLSASVGDRVTITCQASESIYSSLAWYQQKPGKAPKLLIYLASTLASGVPSRFSGSGSGTDFTLTISSLQPEDFATYYCQSTDYTTSTHRNSFGTGTKVTVLGGGGGSGGGGSGGGGSGGGGSEVQLVESGGGRVQPGGSLRLSCAASGFSFSTTYYMCWVRQAPGKGLEWIGCTNTASSVRTYYATWAKGRFTISRDNSKNTVYLQMNSLRAEDTATYYCARDMGFADYALNLWGQGTLVTVSS', 1);
